Values were extracted from paper PMC10044449.

experimental.protocol: Mouse pharmacokinetic study
Assay type: in vivo, Swiss albino mice
condition.set: male, Swiss albino, mouse, plasma, iv, 3 mg/kg, Vss, mice, IV 3 mg/kg
endpoint.label: Vd (L/kg)

>>> observed_value("C1CCc2c(c(N3CCOCC3)nc3sc4c(N5CCNCC5)nnnc4c23)C1 [UNC10201652]")
16.7

* * *

experimental.protocol: Hepatocyte metabolic stability
condition.set: human, hepatocytes
endpoint.label: half-life at 1 μM (h)

>>> observed_value("C1CCc2c(c(N3CCOCC3)nc3sc4c(N5CCNCC5)nnnc4c23)C1")
1.11

* * *

experimental.protocol: Hepatocyte metabolic stability
condition.set: Sprague Dawley, rat, hepatocytes
endpoint.label: half-life at 1 μM (min)

>>> observed_value("C1CCc2c(c(N3CCOCC3)nc3sc4c(N5CCNCC5)nnnc4c23)C1 [UNC10201652]")
9.89

* * *

experimental.protocol: Liver microsomal metabolic stability
Type: in vitro ADME, rat
condition.set: Sprague Dawley, rat, liver microsomes, pH 7.4
endpoint.label: microsomal CLint at 1 μM (µL/min/mg)

>>> observed_value("C1CCc2c(c(N3CCOCC3)nc3sc4c(N5CCNCC5)nnnc4c23)C1 [UNC10201652]")
194

* * *

experimental.protocol: Hepatocyte metabolic stability
condition.set: ICR/CD-1, mouse, hepatocytes
endpoint.label: hepatocyte CLint at 1 μM

>>> observed_value("C1CCc2c(c(N3CCOCC3)nc3sc4c(N5CCNCC5)nnnc4c23)C1")
"116 µL/min/1e6 cells"

* * *

experimental.protocol: Liver microsomal metabolic stability
Format: in vitro ADME, mouse
condition.set: ICR/CD-1, mouse, liver microsomes, pH 7.4
endpoint.label: microsomal CLint at 1 μM

>>> observed_value("C1CCc2c(c(N3CCOCC3)nc3sc4c(N5CCNCC5)nnnc4c23)C1")
"115 µL/min/mg"

* * *

experimental.protocol: Liver microsomal metabolic stability
condition.set: human, microsomes, pH 7.4
endpoint.label: half-life at 1 μM

>>> observed_value("C1CCc2c(c(N3CCOCC3)nc3sc4c(N5CCNCC5)nnnc4c23)C1")
"28.8 min"
